Reference source: patent US20260125454A1

# Target or test system: T1, Biotin-huCGRPaSA (human, not fully specified; biotin (position not given))
# T1 construct: exact construct ('aSA') not explained; also called Biotin CGRPaSA; full-length (1-37) CGRP
# T1 peptide: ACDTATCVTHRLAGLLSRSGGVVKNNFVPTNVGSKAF
# Assay: ELISA, transfection supernatant, biotin-CGRP on streptavidin
# Procedure: Streptavidin was diluted to 0.5 μg/mL by using PBS (Hyclone) and added into a plate at 100 μL/well. The plate was incubated in a thermostat incubator at 37° C. for 90 min and then washed. […] Finally, a 2 M hydrochloric acid solution was added at 100 μL/well to stop the reaction while avoiding bubbles, and the plates were read on a microplate reader within 10 min (the detection wavelength was 450 nm; the reference wavelength was 620 nm).

[
  {
    "Binder": "C120 (antibody, V domains shown, 2B8-HC1 + 1F5-LC1; chimeric, human constant regions) VH: EVQLQQSGPELVKPGASVKISCKASGYTFTDYNMHWVKQSHGKSLEWIGNIYPYNGGTVYNQKFNNKATLTVHTSSSTAYMDLRSLTSDDSAVYYCAREGLGGYWGQGTTLTVSS VL: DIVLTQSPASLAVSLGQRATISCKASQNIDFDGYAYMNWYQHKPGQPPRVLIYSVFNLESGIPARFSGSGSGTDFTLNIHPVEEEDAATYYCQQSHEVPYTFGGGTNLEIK",
    "OD value [OD]": 3.09
  },
  {
    "Binder": "C138 (antibody, V domains shown, 2B8-HC1 + 3H10-LC2; chimeric, human constant regions) VH: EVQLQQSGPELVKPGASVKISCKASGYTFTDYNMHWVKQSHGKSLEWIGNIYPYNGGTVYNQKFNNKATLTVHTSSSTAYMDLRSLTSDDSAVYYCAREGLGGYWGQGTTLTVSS VL: DIVLTQSPDSLAVSLGQRATISCKASQNIDYGGYSYMNWYQQKPGQPPKVLIYSVFNLESGIPARFSGSGSGTDFTLTIHPVEEEDAATYYCQQSNEAPYTFGGGTKLEIR",
    "OD value [OD]": 3.06
  },
  {
    "Binder": "C258 (antibody, V domains shown, 3E5-HC + 1F5-LC1; chimeric, human constant regions) VH: EVQLQQSGPELVKPGASVKISCKTSGYTFTDYNMHWVKQSHGKSLEWIGYISPYNGGTAYNQKFKFKSTLTVDTSSSTAYMELRSLTSEDSAVYYCAREGLGGYWGQGTTLTVSS VL: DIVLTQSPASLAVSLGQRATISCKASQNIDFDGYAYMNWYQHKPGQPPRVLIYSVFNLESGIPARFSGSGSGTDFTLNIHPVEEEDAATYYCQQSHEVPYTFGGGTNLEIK",
    "OD value [OD]": 3.12
  },
  {
    "Binder": "C117 (antibody, V domains shown, 2B8-HC1 + 1A2-LC2; chimeric, human constant regions) VH: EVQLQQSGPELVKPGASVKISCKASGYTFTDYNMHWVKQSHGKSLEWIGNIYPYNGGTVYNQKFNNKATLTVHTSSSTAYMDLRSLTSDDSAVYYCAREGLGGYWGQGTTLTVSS VL: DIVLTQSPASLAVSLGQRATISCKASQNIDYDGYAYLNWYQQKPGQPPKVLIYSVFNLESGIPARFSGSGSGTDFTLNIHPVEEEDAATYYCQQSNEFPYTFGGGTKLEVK",
    "OD value [OD]": 3.06
  },
  {
    "Binder": "C253 (antibody, V domains shown, 3C1-HC + 3H10-LC2; chimeric, human constant regions) VH: EVQLQQSGPELVKPGASMKISCKASGYSFTGYTMNWVKQSHGNNLEWIGLINPYIGNTHYNQKFKDKATFTVDRSSSTAYMALLSLTSEDSAVYYCARELDSGFDYWGQGTTLTVSS VL: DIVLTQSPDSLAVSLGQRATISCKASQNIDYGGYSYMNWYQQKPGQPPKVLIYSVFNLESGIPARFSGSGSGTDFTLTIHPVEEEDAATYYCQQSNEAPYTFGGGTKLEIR",
    "OD value [OD]": 2.46
  }
]
